pKi overview
- TARGET_OR_SYSTEM: T1, human plasma kallikrein (human, UniProt P03952 20-390; P03952 391-638)
- T1 construct: two disulfide-linked chains; also called pKal; human pKal
- T1 sequence (P03952 20-390, chain 1 of 2): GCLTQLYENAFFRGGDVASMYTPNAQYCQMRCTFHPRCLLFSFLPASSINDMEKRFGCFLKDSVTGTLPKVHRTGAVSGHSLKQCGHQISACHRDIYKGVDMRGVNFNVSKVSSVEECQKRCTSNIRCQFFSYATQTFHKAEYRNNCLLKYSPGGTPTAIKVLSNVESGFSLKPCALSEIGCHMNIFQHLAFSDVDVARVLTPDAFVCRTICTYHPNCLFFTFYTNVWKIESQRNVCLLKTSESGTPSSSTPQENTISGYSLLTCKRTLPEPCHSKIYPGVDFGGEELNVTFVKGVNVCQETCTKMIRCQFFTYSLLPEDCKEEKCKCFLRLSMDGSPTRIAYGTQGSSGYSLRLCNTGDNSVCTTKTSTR
- T1 sequence (P03952 391-638, chain 2 of 2): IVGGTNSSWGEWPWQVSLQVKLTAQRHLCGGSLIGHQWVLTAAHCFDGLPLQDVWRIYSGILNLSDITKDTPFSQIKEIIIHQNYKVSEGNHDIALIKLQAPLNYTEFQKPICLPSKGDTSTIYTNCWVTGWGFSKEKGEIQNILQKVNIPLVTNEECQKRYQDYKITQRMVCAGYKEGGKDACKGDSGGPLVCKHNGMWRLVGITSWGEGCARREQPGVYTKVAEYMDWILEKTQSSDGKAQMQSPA
- MEASUREMENT_DESCRIPTION: Ki,app, inhibition of human pKal enzyme activity
Convention used: pKi is expressed as -log10 of the molar concentration.

BINDER	pKi
M209-E02 (Fab, V domains shown, Tested as Fab; printed HC runs into CH1; amber q written Q) VH: EVQLLESGGGLVQPGGSLRLSCAASGFTFSHYLMTWVRQAPGKGLEWVSYISPSGGHTIYADSVKGRFTISRDNSKNTLYLQMNSLRAEDTAVYYCARVARGIAARSRTILLDQWGQGTLVTVSS VL: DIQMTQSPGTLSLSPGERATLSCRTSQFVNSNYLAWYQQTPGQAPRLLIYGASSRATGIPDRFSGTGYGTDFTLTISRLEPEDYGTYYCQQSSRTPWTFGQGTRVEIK	9.52

# next binder below
Input M206-F01 (Fab, V domains shown, Tested as Fab; printed HC runs into CH1) VH: EVQLLESGGGLVQPGGSLRLSCAASGFTFSGYMMVWVRQAPGKGLEWVSRISPSGGPTIYADSVKGRFTISRDNSKNTLYLQMNSLRAEDTAVYYCARVARGIAARSRTSYFDYWGQGTLVTVSS VL: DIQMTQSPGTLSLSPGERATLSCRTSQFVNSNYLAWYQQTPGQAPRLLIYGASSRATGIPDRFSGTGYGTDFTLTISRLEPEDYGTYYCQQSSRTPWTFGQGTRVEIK . Output pKi: 9.70
